# maps each entry to its Preliminary rescue result: adults with normal wings
Test system: Drosophila larvae expressing wild-type TDP-43 in motor neurons
Assay: Drug screen: rescue of lethality caused by wild-type TDP-43 expression in motor neurons (D42 Gal4)
Type: in vivo
Conditions: transgene WT2; 50 μM in fly food
Procedure: […] Larvae expressing TDP-43 (wild type or mutant, as shown) are raised on drug containing food. […] Larvae expressing TDP-43 (wt or mutant) were raised on drug containing food. […] UAS TDP-43 males were crossed with D42-Gal4 female virgins on fly food containing either DMSO or pioglitazone. […] Total number of pupae was counted on day 25. Percent survival was calculated using the formula (total number of straight-winged adults/total number of pupae)×100. […]
Where a name gives a salt, the structure may show the parent alone.
# number only, unit Adults Normal Wings dropped from output

INSERT INTO assay_data (compound, observed_measurement) VALUES
  ('Cc1cc(C(C#N)c2ccc(Cl)cc2)c(Cl)cc1NC(=O)c1cc(I)cc(I)c1O (stereo not drawn)', 2),
  ('CC(NCCc1ccc(O)cc1)C(O)c1ccc(O)cc1 (stereo not drawn)', 2);

Okay, now this compound:
Reported Preliminary rescue result: adults with normal wings for CC(C)(C)NCC(O)COc1cccc2c1CCC(=O)N2 (stereo not drawn) [Carteolol HCl] : what is it?
2
